experiment: antimalarial activity against Dd2 strain (AID 2302);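 also: 0% = DMSO untreated growth and 100% = chloroquine plus artemisinin killed control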; conditions: P. falciparum Dd2 in RBCs, LDH growth readout, 72 h; at 2 µM; active compounds read high
parameterMeasured: growth inhibition (%)

> print(dat)
                                    compound  testvalue
 1  COc1ccc(-c2cnn3ccc(Nc4cc(OC)c(OC)c(OC)c4)nc23)cc1OC        100
 2  CS(=O)(=O)Nc1cccc(-c2cnc3[nH]cc(-c4ccc(C(=O)O)c(F)c4)c3c2)c1         76
 3  Cc1cccc2[nH]c(-c3ccc(-c4ccc(CN5CCCC(O)C5)cc4)s3)nc12 (stereo not given)         29
 4           CC(=NNC(=S)NCCc1ccccn1)c1ccccn1         95
 5  COc1cccc(-n2ncc3c(N/N=C/c4ccc(CN(C)CCN(C)C)cc4)ncnc32)c1         91
 6  CCC(C(C)C)n1ccc2c3c(N)nc(N)nc3ccc21 (stereo not given)         95
 7  FC(F)(F)c1ccc2c(NCCCNc3ccnc4cc(C(F)(F)F)ccc34)ccnc2c1        101
 8  N#CCc1ccc(Nc2nccc(Nc3ccc(Oc4ccccc4)cc3)n2)cc1         47
 9  Cc1cccc(Nc2nc3nonc3nc2Nc2cccc(Cl)c2Cl)c1C         95
10  CCn1c(-c2nonc2N)nc2c(-c3cccc(Cl)c3)ncc(OCCCNCCc3cnc[nH]3)c21         98

###

assay: antimalarial activity against Dd2 strain (AID 2302);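 also: 0% = DMSO untreated growth and 100% = chloroquine plus artemisinin killed control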; conditions: P. falciparum Dd2 in RBCs, LDH growth readout, 72 h; at 2 µM
The source made the active and inactive calls.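 Rule for the calls: active = growth inhibition above 50% at the single 2 µM test dose, taken to imply half-maximal potency below 2 µM; inactive = the rest.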
Outcomes: class 1 for active, class 0 for inactive

> print(dat)
                                   compound  discretelabel
1  Cc1[nH]c(C)c(-c2ccc(Oc3ccc(Cl)cc3)cc2)c(=O)c1C        class 1
2       CCn1c(O)c(N=NC(=S)N2CCCC2)c2ccccc21        class 0
3  Cc1ccccc1N1CCN(c2ccc(C(=O)NC(C)C)cn2)CC1        class 1
4  CN(CCc1ccccc1)c1ncc(-c2ccccc2CNCc2ccccc2O)cn1        class 1
5  O=C(/C=C/c1ccc(Cl)c(Cl)c1)NC1CCC(CN2CCC(Cc3c[nH]c4ccccc34)CC2)CC1 (stereo not given)        class 0

###

test system: R275C/Slo1WT/beta2; experiment: modulators of BK channel variants, profiling panel, selectivity assay, cell-based, U2OS BacMam, thallium flux, beta subunits (AID 1259406); conditions: at 30 µM;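 also: initial slope of Thallos dye fluorescence rise after thallium is added; log ratio against the mean of 0.3% DMSO vehicle wells on the same plate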
Reported values of log fold change Tl+ flux for individual entries
parameterMeasured: log fold change Tl+ flux

compound	testValue
CCOC(=O)Cn1c(=O)ccc2c(C)cc(C)nc21	-0.00135
N#Cc1cccc(CSc2ncnc(N)n2)c1	0.00642
CCN(CC)CCOc1ccc(C(=C(Cl)c2ccccc2)c2ccccc2)cc1	-0.157
C[C@H]1O[C@@H](O[C@H]2[C@@H](O)C[C@H](O[C@H]3[C@@H](O)C[C@H](O[C@H]4CC[C@@]5(C)[C@H](CC[C@@H]6[C@@H]5C[C@@H](O)[C@]5(C)C(C7=CC(=O)OC7)CC[C@]65O)C4)O[C@@H]3C)O[C@@H]2C)C[C@H](O)[C@@H]1O (stereo not given in full)	0.0268
Cc1cc(NC(=S)N2CCCCCC2)ccc1Br	-0.00913
CNCC[C@H](Oc1cccc2ccccc12)c1cccs1	0.0145
CCOC(=O)C(C#N)=CNc1ccccc1OC(F)(F)F	-0.0488
Cc1onc(-c2c(Cl)cccc2Cl)c1C1=NCCO1	-0.00731
O=C(NCCSCc1ccco1)c1cncc(Br)c1	0.024
Cc1nc(C)c(C(=O)O)c(-c2ccsc2)c1C(=O)O	0.0152
